Values compiled from paper PMC4919469.

testedOn: Cdc42Δ7Q61L (human, UniProt P60953 1-184, Q61L)
experimentalProtocol: direct SPA, GTP-bound Cdc42
pKd: −log10 of the molar value.
readoutKind: pKd

>>> measurednumber("ISLPSDFEHTIHVGFDAVTGEFTGMPEQWARLLQTSNITKSEQK (domain or fragment) [GST-PAK]")
7.22
